EXPERIMENTAL SYSTEM: TRPV1 expressing neurons (rat trigeminal neurons) (Rattus norvegicus, UniProt O35433)
Construct: Two-days old Newborn rats were terminally anaesthetized and decapitated; Trigeminal ganglia were removed; endogenous in cells
Sequence (O35433 whole entry): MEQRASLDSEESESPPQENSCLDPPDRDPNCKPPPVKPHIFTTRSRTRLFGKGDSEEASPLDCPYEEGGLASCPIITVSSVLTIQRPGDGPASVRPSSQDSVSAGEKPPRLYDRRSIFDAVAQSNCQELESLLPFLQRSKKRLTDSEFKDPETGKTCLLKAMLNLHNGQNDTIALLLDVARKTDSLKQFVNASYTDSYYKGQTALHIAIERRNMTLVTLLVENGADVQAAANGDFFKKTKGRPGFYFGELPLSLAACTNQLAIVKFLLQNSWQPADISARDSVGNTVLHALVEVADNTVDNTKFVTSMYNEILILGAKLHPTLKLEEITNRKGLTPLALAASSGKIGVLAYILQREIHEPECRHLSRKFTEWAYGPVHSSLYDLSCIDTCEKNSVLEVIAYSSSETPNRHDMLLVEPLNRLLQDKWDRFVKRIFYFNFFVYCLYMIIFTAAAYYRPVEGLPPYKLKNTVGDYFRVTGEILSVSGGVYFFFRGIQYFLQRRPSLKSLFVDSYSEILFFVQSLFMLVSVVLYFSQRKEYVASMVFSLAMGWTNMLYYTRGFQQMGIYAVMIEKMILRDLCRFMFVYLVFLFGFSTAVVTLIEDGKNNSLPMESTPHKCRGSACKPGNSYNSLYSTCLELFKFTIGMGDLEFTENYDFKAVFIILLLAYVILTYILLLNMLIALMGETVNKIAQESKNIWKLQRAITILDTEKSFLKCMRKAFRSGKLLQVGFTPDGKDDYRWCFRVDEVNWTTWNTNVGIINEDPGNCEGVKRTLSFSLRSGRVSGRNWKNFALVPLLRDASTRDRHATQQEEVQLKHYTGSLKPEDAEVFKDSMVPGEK
TEST DETAILS: Ca2+ fluorescence measurements in cultured rat trigeminal ganglia
DETAILS: 0.1 μM capsaicin, mean and 95% fiducial limits, read-out: IC50 inhibiting capsaicin-evoked [Ca2+]i mobilization
READOUT KIND: IC50 (nM)
Express the result in nM but write the number alone.

Illustrative cases are given below, each with its answer.
>>> value_observed("CC1=C(/C=C/C(=O)Nc2cccc3cnccc23)C(C)(C)CCC1 [Ia]")
44
>>> value_observed("CC1=C(/C=C/C(=O)Nc2cccc3cnccc23)C(C)(C)CCC1Oc1ccc(F)c(F)c1 (stereo not shown) [Ig]")
0.65
>>> value_observed("CC1=C(/C=C/C(=O)Nc2cccc3cnccc23)C(C)(C)CCC1Oc1ccc(Cl)cc1 (stereo not shown) [Compound Id]")
18.2
>>> value_observed("CC1=C(/C=C/C(=O)Nc2cccc3cnccc23)C(C)(C)CCC1Oc1ccc(F)cc1 (stereo not shown) [Ie]")
5.25
>>> value_observed("CC1=C(/C=C/C(=O)Nc2cccc3cnccc23)C(C)(C)CCC1Oc1ccccc1 (stereo not shown) [Ic]")
2.12
>>> value_observed("COC1CCC(C)(C)C(/C=C/C(=O)Nc2cccc3cnccc23)=C1C (stereo not shown) [Ib]")
28.4

IC50 of CC1=C(/C=C/C(=O)Nc2cccc3cnccc23)C(C)(C)CCC1Oc1cccc(F)c1 (stereo not shown) [If] on TRPV1 expressing neurons (rat trigeminal neurons) (Rattus norvegicus, UniProt O35433)?
0.38

* * *

For reference, Ki measured on TRPV1 expressed in rat spinal cord (Rattus norvegicus):
Give the number; nM is assumed, so skip it.

>>> value_observed("CC1=C(/C=C/C(=O)Nc2cccc3cnccc23)C(C)(C)CCC1Oc1cccc(F)c1 (stereo not shown)")
8.14

What measured Ki is associated with CC1=C(/C=C/C(=O)Nc2cccc3cnccc23)C(C)(C)CCC1Oc1ccc(Cl)cc1 (stereo not shown) on TRPV1 expressed in rat spinal cord (Rattus norvegicus)?
27

Now try COC1CCC(C)(C)C(/C=C/C(=O)Nc2cccc3cnccc23)=C1C (stereo not shown) .
26.2

Request: CC1=C(/C=C/C(=O)Nc2cccc3cnccc23)C(C)(C)CCC1
66
